In this section we review reported inhibition values for a set of compounds.
# Tested System: Phosphoethanolamine/phosphocholine phosphatase (Homo sapiens) (UniProt Q8TCT1)
# Sequence (Q8TCT1 whole entry, looked up): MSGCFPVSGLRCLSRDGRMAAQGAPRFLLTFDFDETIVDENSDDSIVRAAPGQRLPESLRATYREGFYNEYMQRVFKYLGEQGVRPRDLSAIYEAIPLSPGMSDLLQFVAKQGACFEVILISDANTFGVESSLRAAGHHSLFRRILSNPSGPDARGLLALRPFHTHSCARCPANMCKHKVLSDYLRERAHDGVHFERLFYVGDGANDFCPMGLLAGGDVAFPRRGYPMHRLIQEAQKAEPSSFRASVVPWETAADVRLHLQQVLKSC
# Assay Remarks: PubChem AID 1565
# Assay Setup: recombinant PHOSPHO1, absorbance phosphatase assay; at 13.3 µM; hits give high values
In all, about 290,000 compounds went through this assay and about 3,200 (1.1%) were called active. Shown is part of a subset that was picked to be rich in actives.

{"columns": ["Compound", "Tested System", "Measurement Units", "inhibition"],
 "data": [
  ["CCS(=O)(=O)NCCc1ccc(OC)c(OC)c1", "Phosphoethanolamine/phosphocholine phosphatase (Homo sapiens) (UniProt Q8TCT1)", "%", -2.4],
  ["Cc1cc(C)n2nc(C(=O)NC(C)(C)C)nc2n1", "Phosphoethanolamine/phosphocholine phosphatase (Homo sapiens) (UniProt Q8TCT1)", "%", 27],
  ["O=C(O)c1cccc(N2C(=O)Nc3ccccc3N2O)c1", "Phosphoethanolamine/phosphocholine phosphatase (Homo sapiens) (UniProt Q8TCT1)", "%", 8.3],
  ["CCCNC(=O)CCn1nc(-c2ccccc2)c2ccccc2c1=O", "Phosphoethanolamine/phosphocholine phosphatase (Homo sapiens) (UniProt Q8TCT1)", "%", 19.9],
  ["COc1cc2c(cc1OC)C(/C=C/c1ccco1)=NCC2", "Phosphoethanolamine/phosphocholine phosphatase (Homo sapiens) (UniProt Q8TCT1)", "%", 5.3],
  ["Cc1cccc(NC(=O)c2cccc(C(F)(F)F)c2)c1", "Phosphoethanolamine/phosphocholine phosphatase (Homo sapiens) (UniProt Q8TCT1)", "%", 66.2],
  ["CSCCC(NC(=O)COc1ccccc1)C(=O)OCC(=O)c1cc2ccccc2o1 (centres undefined)", "Phosphoethanolamine/phosphocholine phosphatase (Homo sapiens) (UniProt Q8TCT1)", "%", 0.2],
  ["O=C(O)CC1(CC(=O)Nc2cccc(C(F)(F)F)c2)CCCC1", "Phosphoethanolamine/phosphocholine phosphatase (Homo sapiens) (UniProt Q8TCT1)", "%", 24],
  ["O=C(c1ccccc1)c1ccc(C(=O)N2CCN(c3ccccc3)CC2)cc1", "Phosphoethanolamine/phosphocholine phosphatase (Homo sapiens) (UniProt Q8TCT1)", "%", 70.6],
  ["COc1ccc(OC)c(NC(=O)CN(C)CCOc2ccc(Br)cc2)c1", "Phosphoethanolamine/phosphocholine phosphatase (Homo sapiens) (UniProt Q8TCT1)", "%", -11.8],
  ["O=C(O)CSCC(=O)Nc1ccc(C(F)(F)F)cc1", "Phosphoethanolamine/phosphocholine phosphatase (Homo sapiens) (UniProt Q8TCT1)", "%", 46.4],
  ["COc1ccccc1CCCNC(=O)C1CCC(=O)N(CCN2CCOCC2)C1 (centres undefined)", "Phosphoethanolamine/phosphocholine phosphatase (Homo sapiens) (UniProt Q8TCT1)", "%", 4.2],
  ["COc1ccc(NC(=O)C2CCC(CNS(=O)(=O)c3csc(C(N)=O)c3)CC2)cc1OC (centres undefined)", "Phosphoethanolamine/phosphocholine phosphatase (Homo sapiens) (UniProt Q8TCT1)", "%", 48.8],
  ["CC1(C)Oc2ccc3ccc(=O)oc3c2/C(=C/NCCO)C1=O", "Phosphoethanolamine/phosphocholine phosphatase (Homo sapiens) (UniProt Q8TCT1)", "%", 87],
  ["Cc1cc(C)n2nc(SCC(N)=O)nc2n1", "Phosphoethanolamine/phosphocholine phosphatase (Homo sapiens) (UniProt Q8TCT1)", "%", 35.9],
  ["CNC(=O)c1ccc(NC(=O)c2cccc(C(F)(F)F)c2)cc1", "Phosphoethanolamine/phosphocholine phosphatase (Homo sapiens) (UniProt Q8TCT1)", "%", 47.6],
  ["COc1ccc(Cl)cc1NC(=O)CN(C)C(=O)CCCc1c[nH]c2ccccc12", "Phosphoethanolamine/phosphocholine phosphatase (Homo sapiens) (UniProt Q8TCT1)", "%", 9.8],
  ["Cc1ccc(OCC(=O)NC(C)c2ccccc2)cc1C (centres undefined)", "Phosphoethanolamine/phosphocholine phosphatase (Homo sapiens) (UniProt Q8TCT1)", "%", -16.6],
  ["Cc1c(Cl)cnc(NC(=O)COC(=O)c2ccc(S(=O)(=O)NCc3ccco3)cc2)c1Cl", "Phosphoethanolamine/phosphocholine phosphatase (Homo sapiens) (UniProt Q8TCT1)", "%", -11.7],
  ["Cc1ccccc1N1CCN(C2CCCN(C(=O)c3cn4c(C)cccc4n3)C2)CC1 (centres undefined)", "Phosphoethanolamine/phosphocholine phosphatase (Homo sapiens) (UniProt Q8TCT1)", "%", 22.3],
  ["COc1ccccc1C1/C(=C(/O)c2ccc(OC(C)C)cc2)C(=O)C(=O)N1c1cc(C)on1 (centres undefined)", "Phosphoethanolamine/phosphocholine phosphatase (Homo sapiens) (UniProt Q8TCT1)", "%", -55.7],
  ["Cc1cc(C)n2nc(CNS(=O)(=O)c3c(F)c(F)c(F)c(F)c3F)nc2n1", "Phosphoethanolamine/phosphocholine phosphatase (Homo sapiens) (UniProt Q8TCT1)", "%", 64.9],
  ["O=c1ccc(-c2ccc(S(=O)(=O)Nc3ccccc3)o2)n[nH]1", "Phosphoethanolamine/phosphocholine phosphatase (Homo sapiens) (UniProt Q8TCT1)", "%", 1],
  ["Cc1nnc(SCC(=O)N2CCN(c3ccccc3)CC2)n1-c1ccccc1", "Phosphoethanolamine/phosphocholine phosphatase (Homo sapiens) (UniProt Q8TCT1)", "%", 68.4],
  ["CCCNC(=O)C(=O)Nc1cc2c3c(c1)CCC(=O)N3CCC2", "Phosphoethanolamine/phosphocholine phosphatase (Homo sapiens) (UniProt Q8TCT1)", "%", 54.7],
  ["C/C(=N\\Nc1cccc(C(=O)O)c1)c1ccc2c(c1)Nc1ccccc1S2", "Phosphoethanolamine/phosphocholine phosphatase (Homo sapiens) (UniProt Q8TCT1)", "%", 81.3],
  ["Cc1nc(NC(=O)c2ccc3c(c2)OCCO3)ccc1Br", "Phosphoethanolamine/phosphocholine phosphatase (Homo sapiens) (UniProt Q8TCT1)", "%", 7.6],
  ["N#Cc1ccc(C2N=C(c3ccccc3)NO2)cc1 (centres undefined)", "Phosphoethanolamine/phosphocholine phosphatase (Homo sapiens) (UniProt Q8TCT1)", "%", 30.4],
  ["CCOC(=O)C1=NN(c2ccc(Cl)cc2)/C(=C/C2=NCCc3cc(OC)c(OC)cc32)S1", "Phosphoethanolamine/phosphocholine phosphatase (Homo sapiens) (UniProt Q8TCT1)", "%", 63.1],
  ["O=C(c1ccc(S(=O)(=O)N2CCOCC2)cc1)N1CCN(c2ccccc2)CC1", "Phosphoethanolamine/phosphocholine phosphatase (Homo sapiens) (UniProt Q8TCT1)", "%", 7.1],
  ["COc1ccc(-c2nnc(NC(=O)CS(=O)(=O)c3ccc(Cl)cc3)o2)c(OC)c1", "Phosphoethanolamine/phosphocholine phosphatase (Homo sapiens) (UniProt Q8TCT1)", "%", 46.9],
  ["CC(=O)OC(COc1ccc(F)cc1)Cn1cnc2ccccc21 (centres undefined)", "Phosphoethanolamine/phosphocholine phosphatase (Homo sapiens) (UniProt Q8TCT1)", "%", 43.9],
  ["Cc1ccc(S(=O)(=O)N/N=C\\c2cc3c(cc2[N+](=O)[O-])OCO3)cc1", "Phosphoethanolamine/phosphocholine phosphatase (Homo sapiens) (UniProt Q8TCT1)", "%", -27.6],
  ["CCOCCCN(C)C1CCN(C(=O)c2oc3ccccc3c2NC(=O)Cc2cccc([N+](=O)[O-])c2)CC1", "Phosphoethanolamine/phosphocholine phosphatase (Homo sapiens) (UniProt Q8TCT1)", "%", 16.9],
  ["Cc1[nH]c(C)c(S(=O)(=O)N2CCN(c3cccc(C(F)(F)F)c3)CC2)c1C(=O)N1CCCCC1", "Phosphoethanolamine/phosphocholine phosphatase (Homo sapiens) (UniProt Q8TCT1)", "%", 42.6],
  ["O=S(=O)(Nc1ccc2[nH]ncc2c1)c1ccccc1Cl", "Phosphoethanolamine/phosphocholine phosphatase (Homo sapiens) (UniProt Q8TCT1)", "%", -129],
  ["C/C=C(/C)C(=O)OC1Cc2c(ccc3ccc(=O)oc23)OC1(C)C (centres undefined)", "Phosphoethanolamine/phosphocholine phosphatase (Homo sapiens) (UniProt Q8TCT1)", "%", 8.5],
  ["Cc1ccccc1OCCC(=O)OCC(=O)NC(C)c1ccccc1 (centres undefined)", "Phosphoethanolamine/phosphocholine phosphatase (Homo sapiens) (UniProt Q8TCT1)", "%", 64.7],
  ["O=C(c1cccc(-n2cccc2)c1)N1CCN(S(=O)(=O)c2ccc(F)cc2)CC1", "Phosphoethanolamine/phosphocholine phosphatase (Homo sapiens) (UniProt Q8TCT1)", "%", -102]
]}
